- Test System: human CCR8 (human, UniProt P51685 1-355)
- Method Summary: cell-based or functional assay
Overview of reported residual hCCL1 (100 nM) Gi2 response, protocol #3, mAb 0.5 µg/mL across a group of binders:
Could you give me the number in %? Just the number is fine.

Solved entries (count: 5):
# lookup: residual hCCL1 (100 nM) Gi2 response, protocol #3, mAb 0.5 µg/mL of anti-CCR8 mAb 1-16 (antibody, V domains shown, Murine hybridoma mAb) VH: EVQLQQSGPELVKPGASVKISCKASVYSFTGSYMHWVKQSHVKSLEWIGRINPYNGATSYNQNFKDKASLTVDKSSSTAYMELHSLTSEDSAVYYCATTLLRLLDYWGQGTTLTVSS VL: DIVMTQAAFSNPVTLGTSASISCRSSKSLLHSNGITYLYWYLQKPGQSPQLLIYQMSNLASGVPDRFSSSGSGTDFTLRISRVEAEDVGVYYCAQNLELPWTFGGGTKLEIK
81

# lookup: residual hCCL1 (100 nM) Gi2 response, protocol #3, mAb 0.5 µg/mL of anti-CCR8 mAb 1-18 (antibody, V domains shown, Murine hybridoma mAb) VH: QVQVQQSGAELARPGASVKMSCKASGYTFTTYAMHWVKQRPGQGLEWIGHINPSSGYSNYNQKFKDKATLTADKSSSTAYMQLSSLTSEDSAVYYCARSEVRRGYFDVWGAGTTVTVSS VL: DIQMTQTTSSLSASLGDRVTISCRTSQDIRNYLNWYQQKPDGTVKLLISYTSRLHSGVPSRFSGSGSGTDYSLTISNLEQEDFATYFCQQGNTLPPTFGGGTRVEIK
62

# lookup: residual hCCL1 (100 nM) Gi2 response, protocol #3, mAb 0.5 µg/mL of anti-CCR8 mAb 1-10 (antibody, V domains shown, Murine hybridoma mAb) VH: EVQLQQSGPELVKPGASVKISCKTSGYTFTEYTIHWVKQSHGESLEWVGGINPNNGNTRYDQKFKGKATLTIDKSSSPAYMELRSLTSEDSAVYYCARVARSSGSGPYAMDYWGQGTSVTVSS VL: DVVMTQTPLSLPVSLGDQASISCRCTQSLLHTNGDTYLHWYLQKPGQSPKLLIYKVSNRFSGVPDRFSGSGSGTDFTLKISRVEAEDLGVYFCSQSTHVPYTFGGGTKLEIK
57

# lookup: residual hCCL1 (100 nM) Gi2 response, protocol #3, mAb 0.5 µg/mL of anti-CCR8 mAb 1-4 (antibody, V domains shown, Murine hybridoma mAb) VH: EVQLVESGGGLVQPTGSLRLSCAASGFTFNAYAMNWVRQAPGKGLEWVARIRSKSNDYATYYGDSVKDRFTISRDDSQSMLYLQMNNLKTEDTAMYYCVRGREAYYRYDGGYYAMDYWGQGTSVTVSS VL: DIVMTQAAPSVSVTPGESVSISCTSSKSLLHSNGNTYLYWFLQRPGQSPQLLIYRMSNLASGVPDRFSGSGSGTAFTLRISRVEAEDVGVYYCMQHREYPFTFGSGTKLEIK
36

# lookup: residual hCCL1 (100 nM) Gi2 response, protocol #3, mAb 0.5 µg/mL of anti-CCR8 mAb 1-7 (antibody, V domains shown, Murine hybridoma mAb) VH: QVHLVETGGGLVRPGNSLKLSCVTSGFTLSNYRMHWLRQPPGKRLEWIAVIKVKSDNYGANYAESVKGRFTISRDDAKSSVYLQMNRLREEDTATYYCSRPDGFSPFVYWGQGTLVTVSA VL: DIKMTQSPSSMYASLGERVTITCKASQDINSYLSWFQQKPGKSPKTLIYRANRLVDGVPSRFSGSGSGQDYFLTISSLEYEDMGIYYCLQYGEFPPTFGAGTKLELK
38

***
# lookup: residual hCCL1 (100 nM) Gi2 response, protocol #3, mAb 0.5 µg/mL of anti-CCR8 mAb 1-24 (antibody, human IgG1, kappa, V domains shown, Humanized mAb, human IgG1 / kappa) VH: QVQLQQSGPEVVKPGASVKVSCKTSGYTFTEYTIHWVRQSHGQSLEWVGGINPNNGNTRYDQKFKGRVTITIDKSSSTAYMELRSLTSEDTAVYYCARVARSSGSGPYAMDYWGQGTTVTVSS VL: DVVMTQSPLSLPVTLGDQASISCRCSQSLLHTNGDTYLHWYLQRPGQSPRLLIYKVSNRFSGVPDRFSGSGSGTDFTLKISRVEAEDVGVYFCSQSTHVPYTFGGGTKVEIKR
52

# lookup: residual hCCL1 (100 nM) Gi2 response, protocol #3, mAb 0.5 µg/mL of anti-CCR8 mAb 1-22 (antibody, human IgG1, kappa, V domains shown, Humanized mAb, human IgG1 / kappa) VH: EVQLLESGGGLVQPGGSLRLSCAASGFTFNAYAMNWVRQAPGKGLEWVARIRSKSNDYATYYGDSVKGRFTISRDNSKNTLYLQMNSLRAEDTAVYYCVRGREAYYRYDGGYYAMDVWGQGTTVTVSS VL: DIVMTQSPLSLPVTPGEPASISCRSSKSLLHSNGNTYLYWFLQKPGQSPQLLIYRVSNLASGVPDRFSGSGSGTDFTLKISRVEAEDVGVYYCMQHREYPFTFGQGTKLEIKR
76
